- methodNotes: Solubility of spacer measured as dialcohol precursor
- Format: physicochemical
- experimentalSetup: dodecyl spacer measured as dialcohol precursor
parameter: solubility

Q. Given the compound OCCCCCCCCCCCCO [1,12-dihydroxydodecane] , what is its reported solubility?
A. < 5000 µg/mL

---

- Test system: plasmacytoid dendritic cells (PDCs)
- Assay type: cell-based, human
- experimentalSetup: in the presence of influenza virus and SEQ ID NO:123; read-out: concentration of hydroxycortisone necessary to achieve 50% death of PDCs
parameter: EC50 (nM)
Lab book: enter the figure in nM, no units written.

Q. Fill in the recorded EC50 for this compound, with plasmacytoid dendritic cells (PDCs) as test system: C[C@]12CCC(=O)C=C1CC[C@@H]1[C@@H]2[C@@H](O)C[C@@]2(C)[C@H]1CC[C@]2(O)C(=O)CO [hydroxycortisone, reference compound]
A. 22

---

- testedTarget: TLR9 (Homo sapiens)
- Sequence (Q9NR96 26-1032, species assumed): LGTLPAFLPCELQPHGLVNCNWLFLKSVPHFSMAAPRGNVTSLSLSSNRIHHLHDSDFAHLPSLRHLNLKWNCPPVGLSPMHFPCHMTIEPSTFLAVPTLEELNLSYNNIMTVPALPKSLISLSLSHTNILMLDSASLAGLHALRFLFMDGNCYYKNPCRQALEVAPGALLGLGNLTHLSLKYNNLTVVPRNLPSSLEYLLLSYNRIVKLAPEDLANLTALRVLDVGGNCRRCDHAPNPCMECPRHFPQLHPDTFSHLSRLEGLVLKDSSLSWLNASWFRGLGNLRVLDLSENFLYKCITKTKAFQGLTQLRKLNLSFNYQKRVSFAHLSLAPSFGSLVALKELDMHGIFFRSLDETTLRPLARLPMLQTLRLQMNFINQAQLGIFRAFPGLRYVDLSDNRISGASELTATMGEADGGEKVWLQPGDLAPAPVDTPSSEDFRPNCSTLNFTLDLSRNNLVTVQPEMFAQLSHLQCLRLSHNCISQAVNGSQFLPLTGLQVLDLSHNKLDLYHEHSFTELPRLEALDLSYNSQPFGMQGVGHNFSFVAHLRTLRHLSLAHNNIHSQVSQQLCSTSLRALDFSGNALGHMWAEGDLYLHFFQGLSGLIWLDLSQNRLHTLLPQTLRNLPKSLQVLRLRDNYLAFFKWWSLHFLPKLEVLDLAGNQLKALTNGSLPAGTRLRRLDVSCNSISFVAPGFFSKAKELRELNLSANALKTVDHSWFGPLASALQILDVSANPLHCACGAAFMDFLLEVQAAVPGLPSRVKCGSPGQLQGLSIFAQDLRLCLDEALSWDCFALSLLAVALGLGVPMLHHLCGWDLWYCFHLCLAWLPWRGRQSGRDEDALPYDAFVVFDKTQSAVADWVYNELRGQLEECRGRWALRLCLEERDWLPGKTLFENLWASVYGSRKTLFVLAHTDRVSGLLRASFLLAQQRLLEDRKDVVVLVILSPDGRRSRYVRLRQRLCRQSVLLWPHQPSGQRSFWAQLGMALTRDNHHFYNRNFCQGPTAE
- methodNotes: TLR9 dependent cell responses (statement in description)
- Assay type: cell-based
parameter: TLR9 dependent cell responses

substance	parameter	experimentalValue
5′-TGCTTGCAAGCTTGCTAGCA-3′ (chemistry not given here) [SEQ ID NO:34]	TLR9 dependent cell responses	The same is also true
5′-TGCTTGCAAGCTTGCTAGCA-HEG-TCCTGGAGGGGTTGT-3′ (TGCTTGCAAGCTTGCTAGCATCCTGGAGGGGTTGT; Two nucleotide segments joined by a hexaethylene glycol (HEG) spacer, nucleotide chemistry not given here) [SEQ ID NO:69]	TLR9 dependent cell responses	The same is also true

---

- testedTarget: TLR7 (Homo sapiens)
- Sequence (Q9NYK1 27-1049, species assumed): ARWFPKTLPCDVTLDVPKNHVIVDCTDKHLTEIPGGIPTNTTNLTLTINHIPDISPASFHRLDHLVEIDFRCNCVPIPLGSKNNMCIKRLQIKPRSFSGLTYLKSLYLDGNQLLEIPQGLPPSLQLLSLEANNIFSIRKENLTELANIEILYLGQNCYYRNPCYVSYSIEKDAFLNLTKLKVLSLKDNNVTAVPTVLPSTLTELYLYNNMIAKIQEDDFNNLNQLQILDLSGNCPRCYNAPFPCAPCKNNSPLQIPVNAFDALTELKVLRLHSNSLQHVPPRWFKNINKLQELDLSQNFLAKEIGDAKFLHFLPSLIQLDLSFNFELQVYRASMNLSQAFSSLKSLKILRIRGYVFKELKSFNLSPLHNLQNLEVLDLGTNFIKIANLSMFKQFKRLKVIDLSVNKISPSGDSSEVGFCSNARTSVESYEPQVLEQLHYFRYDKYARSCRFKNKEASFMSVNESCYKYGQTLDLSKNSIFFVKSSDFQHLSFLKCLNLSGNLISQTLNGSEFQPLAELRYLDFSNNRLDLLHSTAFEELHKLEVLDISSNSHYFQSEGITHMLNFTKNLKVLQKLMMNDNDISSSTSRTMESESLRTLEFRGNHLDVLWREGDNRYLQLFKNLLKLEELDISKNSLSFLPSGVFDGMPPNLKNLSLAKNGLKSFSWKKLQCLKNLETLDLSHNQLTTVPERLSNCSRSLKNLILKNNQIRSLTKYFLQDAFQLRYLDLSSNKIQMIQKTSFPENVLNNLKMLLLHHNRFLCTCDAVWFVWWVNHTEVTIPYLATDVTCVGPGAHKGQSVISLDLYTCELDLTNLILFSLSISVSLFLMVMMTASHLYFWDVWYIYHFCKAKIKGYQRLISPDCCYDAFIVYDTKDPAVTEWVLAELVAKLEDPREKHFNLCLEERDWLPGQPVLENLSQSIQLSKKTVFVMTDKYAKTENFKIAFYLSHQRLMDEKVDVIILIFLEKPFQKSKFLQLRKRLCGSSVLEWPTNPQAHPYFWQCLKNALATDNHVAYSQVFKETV
- methodNotes: TLR7 dependent cell responses (statement in description)
- Type: cell-based

substance	TLR7 dependent cell responses
5′-TGCTTGCAAGCTTGCTAGCA-HEG-TCCTGGAGGGGTTGT-3′ (TGCTTGCAAGCTTGCTAGCATCCTGGAGGGGTTGT; Two nucleotide segments joined by a hexaethylene glycol (HEG) spacer, nucleotide chemistry not given here) [SEQ ID NO:69]	The same is also true
5′-TGCTTGCAAGCTTGCAAGCA-3′ (chemistry not given here) [SEQ ID NO:27]	inhibits
5′-TGCTTGCAAGCTAGCAAGCA-3′ (chemistry not given here) [SEQ ID NO:33]	inhibits
5′-TGCTTGCAAGCTTGCTAGCA-3′ (chemistry not given here) [SEQ ID NO:34]	The same is also true
